biological target: P2X4 receptor (Homo sapiens, UniProt Q99571); test: Measurement of Ca2+ influx in transfected 1321N1 astrocytoma cells (P2X4 inhibitory potency); settings: agonist-mediated Ca2+ influx, FLUO-4, 1321N1 astrocytoma cells; antagonists added 30 min before agonist
Sequence (Q99571 whole entry): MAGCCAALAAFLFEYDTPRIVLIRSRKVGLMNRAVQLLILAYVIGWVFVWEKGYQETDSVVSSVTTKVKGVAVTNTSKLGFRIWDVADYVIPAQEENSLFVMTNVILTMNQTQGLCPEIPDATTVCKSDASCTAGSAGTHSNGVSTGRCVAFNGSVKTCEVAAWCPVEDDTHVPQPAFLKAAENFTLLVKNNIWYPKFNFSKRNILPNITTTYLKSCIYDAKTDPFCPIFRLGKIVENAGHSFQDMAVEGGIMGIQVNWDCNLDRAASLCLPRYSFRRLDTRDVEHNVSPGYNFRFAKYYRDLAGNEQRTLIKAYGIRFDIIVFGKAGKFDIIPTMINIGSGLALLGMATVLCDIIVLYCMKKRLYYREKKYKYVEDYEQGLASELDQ
value type: IC50

Consider the worked cases shown below.
- compound: "COc1ccc(-c2nc(C)ns2)cc1NCC(=O)n1ccc2cc(F)ccc21"
  value type: "IC50"
  endpoint value: "70 to 99 nM"
- compound: "COc1ccc(-c2ccc(C)cn2)cc1NCC(=O)N1CCc2c(OC)cccc21"
  value type: "IC50"
  endpoint value: "40 to 69 nM"
- compound: "Cc1nsc(-c2ccc(C)c(NCC(=O)N3CCc4c(OCCC(C)(C)O)cccc43)c2)n1"
  value type: "IC50"
  endpoint value: "0.1 to 19 nM"
- compound: "Cc1noc(-c2ccc(C)c(NCC(=O)N3CCc4c(OCCC(C)(C)O)cccc43)c2)n1"
  value type: "IC50"
  endpoint value: "20 to 39 nM"
- compound: "CCc1nsc(-c2ccc(F)c(NCC(=O)N3CCc4c(N5CC(O)C5)cccc43)c2)n1"
  value type: "IC50"
  endpoint value: "0.1 to 19 nM"

Quick one: IC50 of Cc1nsc(-c2ccc(C)c(NCC(=O)N3CCc4c(NC(=O)[C@H]5CCCN5)cccc43)c2)n1 ? 0.1 to 19 nM

Follow-up item: Cc1nsc(-c2ccc(C)c(NCC(=O)N3CCc4c(C(C)O)cccc43)c2)n1 (centres unmarked) 20 to 39 nM

Follow-up item: Cc1ccc(-c2ccc(F)c(NCC(=O)N3CCc4c(OCC(C)(C)O)cccc43)c2)o1 20 to 39 nM

Follow-up item: Cc1nsc(-c2ccc(C)c(NCC(=O)N3CCc4c(C(O)C(F)(F)F)cccc43)c2)n1 (centres unmarked) 20 to 39 nM

Follow-up item: Cc1ccc(-c2nc(C(F)F)ns2)cc1NCC(=O)N1CCc2c1cccc2C(C)(C)O 20 to 39 nM

Follow-up item: Cc1nsc(-c2ccc(C)c(NCC(=O)c3cn4c5c(cccc35)CCC4)c2)n1 20 to 39 nM
